Tested on: HOP-62 NSCLC
Experiment: NCI-60 one-dose screen, 48 h
Settings: 10 µM unless noted
About 83,000 compounds went through this panel and 20% of them were active in at least one assay; those are over-represented in the sample as a whole. Activity calls are given as the source filed them. How the source made its calls: active means growth percent below 10; inactive means the rest.
Classes used: True = active, False = inactive

Molecule	Label value
CC(C)CCNCC(C)(C)O	False
Cc1cc(C)c(O)c(CNCCCNCc2cc(C)cc(C)c2O)c1	False
CC(C)=CC/C=C(/C)[C@H]1CC[C@]2(C)[C@@H]1CC[C@@H]1[C@@]3(C)CCCNC(C)(C)[C@@H]3CC[C@]12C	True
CN(C)c1cc(NN=C(c2ccc(O)cc2)c2ccc(O)cc2)c([N+](=O)[O-])cc1[N+](=O)[O-]	False
CCc1ccc(C2=C/C(=C/c3ccccc3)C(=O)N2CCc2ccc(S(N)(=O)=O)cc2)cc1	False
C=C(C)[C@@H]1CC[C@]2(C(=O)NCCCCCCN(CCCN)CCCN)CC[C@]3(C)[C@H](CC[C@@H]4[C@@]5(C)CC[C@H](OCCCN)C(C)(C)[C@@H]5CC[C@]43C)[C@@H]12	False
Cn1cc(-c2noc(C(=O)c3cn(C)c4ncccc34)n2)c2ccccc21	False
CO[C@H]1CC[C@@]2(C)C(=CC[C@H]3[C@@H]4C[C@H](O)C[C@@]4(C)CC[C@@H]32)C1	False
c1cc2ccc1CNCCN1CCNCc3ccc(cc3)Oc3ccc(cc3)CNCCN(CCNCc3ccc(cc3)O2)CCNCc2ccc(cc2)Oc2ccc(cc2)CNCC1	True
C[N+](C)(C)c1ncnc2[n-]cnc12	False
CC(C)CCSc1nc(N)nc2nc[nH]c12	False
CCN1CCN(CC(=O)Nc2nc3ccc(NCc4ccc(Cl)cc4)cc3s2)CC1	False
C=C(C)[C@@H]1CC[C@]2(C(=O)OC)CC[C@]3(C)[C@H](CC[C@@H]4[C@@]5(C)CC/C(=N\OCCC(=NCCC#N)NOCCC#N)C(C)(C)[C@@H]5CC[C@]43C)[C@@H]12	False
O=C(N=c1n(-c2ccccc2)nc2n1CCN2C1=NCCN1)c1ccc(Cl)cc1	False
CCN(CCNc1ccc(C)c2sc3cc(Cl)ccc3c(=O)c12)CC(C)O (centres undefined)	False
CC1Cc2c(ncnc2-n2cnc3ccccc32)N(C)c2ccccc21 (centres undefined)	False
Nc1ccc(Cl)c([N+](=O)[O-])c1	False
CCCCCCSc1ncnc2nc[nH]c12	False
Cc1cc2c(C(C)C)c(O)c(O)c(C=NCc3ccoc3)c2c(O)c1-c1c(C)cc2c(C(C)C)c(O)c(O)c(C=NCc3ccco3)c2c1O	False

* * *

Test system: NCI-H23 lung
Assay: NCI-60 one-dose screen, 48 h
Settings: 10 µM unless noted
Experimental: Growth inhibition of the NCI-H23 human Non-Small Cell Lung tumor cell line is measured as a screen for anti-cancer activity. Cells are grown in 96 well plates and exposed to the test compound for 48 hours. Compounds are tested at a single concentration, which is 10^-5 M for most compounds. The reported endpoint is percent growth (GI% or GIPRCNT), where numbers from 0 - 100% represent growth inhibition, and numbers from -100% - 0 represent cell death. […]
The panel holds about 83,000 compounds, 20% with a hit somewhere; the sample as a whole holds those more often. Calls of active or inactive are those of the source. The calls were made as follows: active = growth percent below 10; inactive = the rest.
Possible outcomes: active, inactive

Molecule	Label value
Cc1ccc(-c2cc(-c3ccc(C)cc3)nc(N3CCN(CCNc4ccnc5cc(Cl)ccc45)CC3)n2)cc1	inactive
O=c1cc(-c2ccccc2)oc2c(O)c(O)ccc12	inactive
Clc1ccc(N2CCN(CCCN3CCN(c4cccc(Cl)c4)CC3)CC2)cc1	inactive
C=C(C)[C@@H]1CC[C@]2(C(N)=O)CC[C@]3(C)[C@H](CC[C@@H]4[C@@]5(C)CC[C@H](O)C(C)(C)[C@@H]5CC[C@]43C)[C@@H]12	active
O=C1NC(=O)c2cc([N+](=O)[O-])cc3cccc1c23	inactive
Nc1ccc2c(c1)Cc1cc(NC(=O)C(F)(F)F)ccc1-2	inactive
O=C(O)c1cccc(CN2CCN(c3cc4c(cc3F)c(=O)c(C(=O)O)cn4C3CC3)CC2)c1O	inactive
COc1ccc(CC(C#N)c2ccc(Cl)cc2)cc1 (stereo not given)	inactive
CN(C)c1ccc(N=Nc2ccc3ccccc3c2)cc1	inactive
O=[N+]([O-])c1ccc(O)c(-c2nc3ccccc3s2)c1	inactive

* * *

Test system: SNB-19 CNS
Assay: NCI-60 one-dose screen, 48 h
Conditions: 10 µM unless noted
Compounds without any hit were thinned out: in the full panel of roughly 83,000, 20% have a hit. The source made the active and inactive calls. Rule for the calls: active = growth percent below 10; inactive = the rest.
Labels: true (1) (active), false (0) (inactive)

Compound	Label value
O=C(N=c1n(-c2ccccc2)nc2n1CCN2C1=NCCN1C(=O)c1ccc(Cl)cc1)c1ccc(Cl)cc1	false (0)
Cc1cc(N2CCCCCC2)nc(N2CCN(CC(=O)Nc3ccc4c(ccn4Cc4ccccc4)c3)CC2)n1	false (0)
CC1(C)CC[C@]2(C(=O)O)CC[C@]3(C)[C@H](CC[C@@H]4[C@@]5(C)CCC(=O)C(C)(C)[C@@H]5CC[C@]43C)[C@H]2[C@H]1OC(=O)C(F)(F)F	true (1)
CC(C)(C)c1cc(C(=O)N2CCC(C(=O)NCCN)CC2)cc(C(C)(C)C)c1	false (0)
CCCCN(CCCC)CC(O)c1ccc(OCc2ccccc2)c2ccccc12 (stereo not drawn)	false (0)
O=C(NCCCNC(=O)OCc1ccc2c(Br)cc(Br)c(O)c2n1)OCc1ccc2c(Br)cc(Br)c(O)c2n1	false (0)
COc1cc(-c2cc(-c3ccc(Nc4ncnc5cc(Cl)ccc45)cc3)nc(N3CCCCC3)n2)cc(OC)c1OC	false (0)
CC1(C)CC[C@]2(C(=O)O)CC[C@]3(C)C(=CC[C@@H]4[C@@]5(C)C/C(=C/c6cccnc6)[C@H](O)C(C)(C)[C@@H]5CC[C@]43C)[C@@H]2C1	false (0)

* * *

Tested on: SNB-19 CNS
Experiment: NCI-60 one-dose screen, 48 h
Details: 10 µM unless noted
This is part of a sample that, as a whole, favours compounds with a hit. Of some 83,000 tested, about 20% had one in any assay. The source made the active and inactive calls. The calls were made as follows: active = growth percent below 10; inactive = the rest.
Labels: 1.0 (active), 0.0 (inactive)

Compound	Label value
COC(=O)c1c(C)[nH]c(/C=C2\N=C(c3ccc[nH]3)C=C2OC)c1C	0.0
COc1ccc(C(=O)CSc2nccc(Nc3ccc(C(=O)O)cc3)n2)cc1	0.0
COc1ccc(N(c2nc(-c3ccc([N+](=O)[O-])cc3)cs2)C(C)C)cc1	0.0
CCOC(=O)COc1ccc2c(c1)O/C(=C\c1ccc(O)cc1)C2=O	0.0
Clc1ccc(/C=N/Nc2nc3ccccc3s2)c(Cl)c1	0.0
CCCCC(CC)COC(=O)C[N+](C)(C)CCOC(c1ccccc1)c1ccccc1 (configuration not stated)	0.0
CC(C)C1=NOC(=O)C1=Cc1cn(-c2ccccc2)nc1-c1ccccc1	0.0
C=C(C)[C@@H]1CC[C@]2(C(=O)OC)CC[C@]3(C)[C@H](CC[C@@H]4[C@@](C)(CCc5nn[nH]n5)[C@H](C(=C)C)CC[C@]43C)[C@@H]12	1.0
Cn1c(=O)c(C#N)c(-c2ccco2)n2c(S(=O)(=O)Cc3ccccc3)nnc12	0.0
CC(C)C1=NOC(=O)C1=Cc1cn(-c2ccccc2)nc1-c1ccc(Br)cc1	0.0
O=C(N[C@@H]1CCCc2ccccc21)[C@H](CCC(=O)N1CCN(C2CCCCC2)CC1)N1C(=O)[C@@H](N2C(=O)OC[C@@H]2c2ccccc2)[C@H]1/C=C/c1ccccc1	0.0
CCOC(=O)C(=Cc1ccccc1[N+](=O)[O-])C(=O)OCC	0.0
Nc1cc(C(=O)O)[nH]c(=S)n1	0.0
O=c1[nH]c2cc(Cl)c(Cl)cc2n2cc3ncccc3c12	0.0
c1coc2occoc=2o1	0.0
COc1ccc(C2CC(c3cc(OC)c(OC)c(OC)c3)=NN2C(C)=O)cc1OCC(=O)Nc1nc2ccc(C(F)(F)F)cc2s1 (configuration not stated)	0.0
CC1(C(=O)O)CCC(N)(C(=O)O)C1(C)C (configuration not stated)	0.0
C[N+](C)(C)c1ncnc2[n-]cnc12	0.0
CCOc1cc(/C=N\NC(=O)N/N=C/c2ccc(O)c(OCC)c2)ccc1O	0.0
C#CC(OC(=O)N(C)C)(c1ccccc1)c1ccc(F)cc1 (configuration not stated)	0.0
CCOC(=O)c1cnc2ccc(Br)cc2c1Nc1cccc(S(N)(=O)=O)c1	0.0
C=C(C)[C@@H]1CC[C@]2(C(=O)NCCCCCCN(CCCN)CCCN)CC[C@]3(C)[C@H](CC[C@@H]4[C@@]5(C)CC[C@H](OCCCN)C(C)(C)[C@@H]5CC[C@]43C)[C@@H]12	0.0
CC(C)C1=NOC(=O)C1=Cc1cn(-c2cccnc2)nc1-c1ccccc1	0.0
O=C1CC(c2ccc3c(c2)OCO3)Nc2ccccc21 (configuration not stated)	0.0
Cc1cccc(C[C@H](NC(=O)Nc2ccc(C)cc2F)C(=O)N[C@@H]2C(=O)N3C[C@H](O)C[C@H]3C(=O)N3CCN(C)C[C@H]3C(=O)N[C@@H](C)C(=O)N3C[C@H](C)C[C@H]3C(=O)O[C@H]2C)c1	0.0
C#C[C@]1(O)CC[C@H]2[C@@H]3CC=C4c5nc(Nc6ncccn6)sc5CC[C@]4(C)[C@H]3CC[C@@]21C	0.0
C=C(C)[C@@H]1CC[C@]2(C)[C@H](CC=C3[C@@H]4[C@@H](C)[C@H](C)CC[C@]4(C(N)=O)CC[C@]32C)[C@@]1(C)CCC#N	0.0
O=C(NCCCNC(=O)OCc1ccc2cccc(O)c2n1)OCc1ccc2cccc(O)c2n1	0.0
O=C(CSc1nccc(Nc2ccc(S(=O)(=O)Nc3ccccn3)cc2)n1)c1ccc(Cl)cc1	0.0
CC(C)[C@H]1COC(=O)N1[C@@H]1C(=O)N([C@@H](CCC(=O)N2CCN(C3CCCC3)CC2)C(=O)N[C@@H]2CCCc3ccccc32)[C@@H]1/C=C/c1cccc(Cl)c1	0.0
C#C[C@]1(O)CC[C@H]2[C@@H]3CC=C4c5nc(Nc6ccc(OC)cc6OC)sc5CC[C@]4(C)[C@H]3CC[C@@]21C	0.0
CCCSc1nc(N)nc2nc[nH]c12	0.0
O=[N+]([O-])c1ccc(O)c(-c2nc3ccccc3s2)c1	0.0
Cc1cccc([N+](=O)[O-])c1I	0.0
COC(=O)[C@@H](NC(=O)NC(=O)NC(=O)CI)C(C)C	0.0
CC1(C)CC(=O)c2c(ccc(C(=O)C[C@@H](N)CO)c2N)O1	0.0
C[C@]12CCc3nc(Nc4ccccc4)sc3C1=CC[C@@H]1[C@@H]2CC[C@]2(C)/C(=N/NC(N)=S)CC[C@@H]12	0.0

Origin of the recorded values: PubChem BioAssay (NCI)
